species on record: Rattus norvegicus; assay: Compound was evaluated for antidiuretic activity with t1/2 of 60 in male rats by modified Burn test; assay type: functional, Urine
Where a SMILES comes first, the peptide text is derived from it. [ ]: non-standard residue; d: D form. The star is where a group is joined. Cyclohexylacetyl(1-SH) = O=C(CC1(S)CCCCC1)*; Ac6c = NC1(C(=O)O)CCCCC1
Value Kind: Activity

Worked examples, 5 compounds total:
| Compound | Activity |
| --- | --- |
| NC(=O)CC[C@H](NC(=O)[C@H](Cc1ccccc1)NC(=O)C1(NC(=O)CCS)CCCCC1)C(=O)N[C@@H](CC(N)=O)C(=O)N[C@@H](CS)C(=O)N1CCC[C@H]1C(=O)N[C@H](CCCN=C(N)N)C(=O)NCC(N)=O | ~4500 IU/mg |
| NC(=O)CC[C@H](NC(=O)C1(NC(=O)[C@H](Cc2ccc(O)cc2)NC(=O)[C@@H](N)CS)CCCCC1)C(=O)N[C@@H](CC(N)=O)C(=O)N[C@@H](CS)C(=O)N1CCC[C@H]1C(=O)N[C@H](CCCN=C(N)N)C(=O)NCC(N)=O | ~0.1 IU/mg |
| NC(=O)CC[C@H](NC(=O)[C@H](Cc1ccccc1)NC(=O)C1(NC(=O)CC2(S)CCCCC2)CCCCC1)C(=O)N[C@@H](CC(N)=O)C(=O)N[C@@H](CS)C(=O)N1CCC[C@H]1C(=O)N[C@H](CCCN=C(N)N)C(=O)NCC(N)=O | <4 IU/mg |
| CC(C)[C@H](NC(=O)C1(NC(=O)[C@H](Cc2ccc(O)cc2)NC(=O)CC2(S)CCCCC2)CCCCC1)C(=O)N[C@@H](CC(N)=O)C(=O)N[C@@H](CS)C(=O)N1CCC[C@H]1C(=O)N[C@@H](CCCN=C(N)N)C(=O)NCC(N)=O ({Cyclohexylacetyl(1-SH)}-Y[Ac6c]VNCPRG-NH2) | <4 IU/mg |
| NC(=O)CC[C@H](NC(=O)[C@H](Cc1ccccc1)NC(=O)C1(NC(=O)CC2(S)CCCCC2)CCCCC1)C(=O)N[C@@H](CC(N)=O)C(=O)N[C@@H](CS)C(=O)N1CCC[C@H]1C(=O)N[C@@H](CCCN=C(N)N)C(=O)NCC(N)=O | ~0.1 IU/mg |

State its Activity: NC(=O)CC[C@H](NC(=O)[C@H](Cc1ccccc1)NC(=O)[C@H](Cc1ccc(O)cc1)NC(=O)CC1(S)CCCCC1)C(=O)N[C@@H](CC(N)=O)C(=O)N[C@@H](CS)C(=O)N1CCC[C@H]1C(=O)N[C@@H](CCCN=C(N)N)C(=O)NCC(N)=O ({Cyclohexylacetyl(1-SH)}-YFQNCPRG-NH2) 0.03 IU/mg

---

species: Rattus norvegicus; test: Compound was evaluated for antidiuretic activity with t1/2 of 60 in male rats by modified Burn test; assay type: functional, Urine
Where a SMILES comes first, the peptide text is derived from it.
The compounds listed here are annotated with their Activity.
Response body: numeric value in IU/mg, unit text excluded.

| Compound | Experimental Value |
| --- | --- |
| CC(C)[C@H](NC(=O)[C@H](Cc1ccccc1)NC(=O)[C@H](Cc1ccc(O)cc1)NC(=O)[C@@H](N)CS)C(=O)N[C@@H](CC(N)=O)C(=O)N[C@@H](CS)C(=O)N1CCC[C@H]1C(=O)N[C@@H](CCCN=C(N)N)C(=O)NCC(N)=O (H-CYFVNCPRG-NH2) | 738 |

Now look at this entry.
State its Activity: CC(C)[C@H](NC(=O)C1(NC(=O)[C@H](Cc2ccc(O)cc2)NC(=O)CCS)CCCCC1)C(=O)N[C@@H](CC(N)=O)C(=O)N[C@@H](CS)C(=O)N1CCC[C@H]1C(=O)N[C@H](CCCN=C(N)N)C(=O)NCC(N)=O 450
